Where do these numbers come from? They come from patent US20200216522A1.

A collection of binders and their measured koff
biological target: T1, full-length human Tau (Tau441; 2N4R), recombinant (human, UniProt P10636 1-758); test: SPR Biacore
T1 construct: made in E. coli, His6-Smt3 tag removed; biotinylated through amines for Octet and phage work; also called r-Tau; recombinant Tau
T1 sequence (P10636 other isoform, or with tags, fused parts or gaps limits assumed): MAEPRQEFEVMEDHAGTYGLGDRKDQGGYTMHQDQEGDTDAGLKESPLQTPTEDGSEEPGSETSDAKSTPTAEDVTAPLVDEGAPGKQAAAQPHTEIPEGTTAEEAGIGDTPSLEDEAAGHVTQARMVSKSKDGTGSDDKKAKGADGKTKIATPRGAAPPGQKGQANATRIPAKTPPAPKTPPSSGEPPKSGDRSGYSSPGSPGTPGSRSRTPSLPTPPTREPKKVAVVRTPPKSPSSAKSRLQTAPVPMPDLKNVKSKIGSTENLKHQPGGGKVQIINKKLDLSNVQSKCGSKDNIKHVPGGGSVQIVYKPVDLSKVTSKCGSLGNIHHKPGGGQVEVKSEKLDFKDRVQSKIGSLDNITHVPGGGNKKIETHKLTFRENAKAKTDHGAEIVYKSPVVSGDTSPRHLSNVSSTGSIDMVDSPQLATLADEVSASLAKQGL

| binder | koff |
| --- | --- |
| Clone with H1_4 (antibody, V domains shown, IgG based on hu1C7.v2) VH: EVQLLESGGGLVQPGGSLRLSCAASGFRFSGPGMSWVRQAPGKGLEWVASISGDGGSYIHYADSVKGRFTISRDNSKNTLYLQMNSLRAEDTAVYYCARLPYWGQGTLVTVSS VL: DIVMTQSPDSLAVSLGERATINCKSSQSLLNSGNQKNYLTWYQQKPGQPPKLLIYWASTRESGVPDRFSGSGSGTDFTLTISSLQAEDVAVYYCQQYNSYPLTFGQGTKVEIKR | 0.000188 s⁻¹ |
| Clone with H1_2-1 (antibody, V domains shown, based on hu1C7.v2) VH: EVQLLESGGGLVQPGGSLRLSCAASGFTFSSVGTSWVRQAPGKGLEWVASISGDGGSYIHYADSVKGRFTISRDNSKNTLYLQMNSLRAEDTAVYYCARLPYWGQGTLVTVSS VL: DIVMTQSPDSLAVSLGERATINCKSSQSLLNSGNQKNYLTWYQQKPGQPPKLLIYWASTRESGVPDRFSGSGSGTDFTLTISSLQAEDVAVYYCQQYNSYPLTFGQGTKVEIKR | 0.000183 s⁻¹ |
| Clone with L1_6 (antibody, V domains shown, based on hu1C7.v2) VH: EVQLLESGGGLVQPGGSLRLSCAASGFTFSSYGMSWVRQAPGKGLEWVASISGDGGSYIHYADSVKGRFTISRDNSKNTLYLQMNSLRAEDTAVYYCARLPYWGQGTLVTVSS VL: DIVMTQSPDSLAVSLGERATINCKSSQSLLQSGNQKNYLTWYQQKPGQPPKLLIYWASTRESGVPDRFSGSGSGTDFTLTISSLQAEDVAVYYCQQYNSYPLTFGQGTKVEIKR | 0.00078 s⁻¹ |
| Clone with H2_3 (antibody, V domains shown, based on hu1C7.v2) VH: EVQLLESGGGLVQPGGSLRLSCAASGFTFSSYGMSWVRQAPGKGLEWVASISGSGGSYIHYADSVKGRFTISRDNSKNTLYLQMNSLRAEDTAVYYCARLPYWGQGTLVTVSS VL: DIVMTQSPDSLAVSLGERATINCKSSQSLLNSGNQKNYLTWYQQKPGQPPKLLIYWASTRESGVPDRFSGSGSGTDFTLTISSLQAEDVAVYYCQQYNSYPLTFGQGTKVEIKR | 0.00408 s⁻¹ |
| Clone with L1_3-2 (antibody, V domains shown, based on hu1C7.v2) VH: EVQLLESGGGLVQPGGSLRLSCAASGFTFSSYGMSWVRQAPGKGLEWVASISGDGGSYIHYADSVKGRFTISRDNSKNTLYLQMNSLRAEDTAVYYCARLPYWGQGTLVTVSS VL: DIVMTQSPDSLAVSLGERATINCKSSQSLLRSGTQKDYLVWYQQKPGQPPKLLIYWASTRESGVPDRFSGSGSGTDFTLTISSLQAEDVAVYYCQQYNSYPLTFGQGTKVEIK | 0.000143 s⁻¹ |
| Clone with L1_7 (antibody, V domains shown, based on hu1C7.v2) VH: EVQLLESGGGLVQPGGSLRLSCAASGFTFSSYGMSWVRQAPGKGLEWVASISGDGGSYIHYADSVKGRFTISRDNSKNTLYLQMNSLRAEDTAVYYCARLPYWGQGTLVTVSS VL: DIVMTQSPDSLAVSLGERATINCKSSQSLLNAGNQKNYLTWYQQKPGQPPKLLIYWASTRESGVPDRFSGSGSGTDFTLTISSLQAEDVAVYYCQQYNSYPLTFGQGTKVEIKR | 0.000719 s⁻¹ |
| Clone with L1_3-11 (antibody, V domains shown, based on hu1C7.v2) VH: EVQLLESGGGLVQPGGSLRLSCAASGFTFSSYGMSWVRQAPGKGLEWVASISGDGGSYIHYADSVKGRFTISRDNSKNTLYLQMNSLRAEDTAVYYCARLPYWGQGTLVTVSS VL: DIVMTQSPDSLAVSLGERATINCKSSQSLHRSGTQKDYLAWYQQKPGQPPKLLIYWASTRESGVPDRFSGSGSGTDFTLTISSLQAEDVAVYYCQQYNSYPLTFGQGTKVEIK | 0.000223 s⁻¹ |
| Clone with H2_4 (antibody, V domains shown, based on hu1C7.v2) VH: EVQLLESGGGLVQPGGSLRLSCAASGFTFSSYGMSWVRQAPGKGLEWVASISGDAGSYIHYADSVKGRFTISRDNSKNTLYLQMNSLRAEDTAVYYCARLPYWGQGTLVTVSS VL: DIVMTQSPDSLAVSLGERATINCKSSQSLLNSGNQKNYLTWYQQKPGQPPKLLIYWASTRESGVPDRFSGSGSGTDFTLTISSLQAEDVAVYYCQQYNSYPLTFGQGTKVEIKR | 0.00309 s⁻¹ |
| Clone with H2_5 (antibody, V domains shown, based on hu1C7.v2) VH: EVQLLESGGGLVQPGGSLRLSCAASGFTFSSYGMSWVRQAPGKGLEWVASISGDGGSYIHYASSVKGRFTISRDNSKNTLYLQMNSLRAEDTAVYYCARLPYWGQGTLVTVSS VL: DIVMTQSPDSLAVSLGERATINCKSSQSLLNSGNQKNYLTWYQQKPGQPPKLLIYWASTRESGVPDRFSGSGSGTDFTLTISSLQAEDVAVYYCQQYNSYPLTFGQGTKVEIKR | 0.00176 s⁻¹ |
| Clone with H1_2-2 (antibody, V domains shown, based on hu1C7.v2) VH: EVQLLESGGGLVQPGGSLRLSCAASGFTFSMVGTSWVRQAPGKGLEWVASISGDGGSYIHYADSVKGRFTISRDNSKNTLYLQMNSLRAEDTAVYYCARLPYWGQGTLVTVSS VL: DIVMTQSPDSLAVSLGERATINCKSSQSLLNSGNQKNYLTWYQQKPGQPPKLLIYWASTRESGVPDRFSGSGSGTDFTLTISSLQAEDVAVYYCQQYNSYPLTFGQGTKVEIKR | 9.71e-05 s⁻¹ |
